System tested: Alpha-2C adrenergic receptor (Homo sapiens)
Method: Displacement of [3H]-UK14304 from recombinant human alpha2c adrenergic receptor expressed in CHOK1 cell membranes after 30 mins by scintillation counting analysis
Condition summary: CHO-K1
Measured endpoint: Emax (%)
Hi! Could you send only the number? It should be in %, unit omitted.

Examples with their reported Emax follow.
- Compound: "Oc1cc2c(cc1O)C(c1ccccc1)CNCC2 (configuration not stated)"
  Unit of measurement: "%"
  Result number: 92
- Compound: "N#Cc1cccc(-c2ccccc2CCN)c1"
  Unit of measurement: "%"
  Result number: 100

Note to self: Emax recorded for OC(Cn1ccnc1)c1ccc(Cl)cc1Cl (configuration not stated) was 78

Note to self: Emax recorded for `Cc1ccccc1NCc1cnc[nH]1` was 100

Note to self: Emax recorded for `Brc1cccc(Cn2ccnc2)c1` was 97

Note to self: Emax recorded for `c1ccc(-c2nc(CNCc3cccnc3)c[nH]2)cc1` was 102

Note to self: Emax recorded for `NCC(=O)Nc1ccccc1Oc1ccccc1` was 81

Note to self: Emax recorded for `Cc1ccccc1NCc1ccncc1` was 92

Note to self: Emax recorded for `c1ccc2c(CC3=NCCN3)cccc2c1` was 102

Note to self: Emax recorded for `c1cncc(-c2ccccc2NCc2ccncc2)c1` was 98

Note to self: Emax recorded for CCNCC(=O)N1CCn2cccc2C1c1cccc(Cl)c1 (configuration not stated) was 99

Note to self: Emax recorded for `NCCSc1nc2ccccc2o1` was 92

Note to self: Emax recorded for `NCCCN(C(=O)c1ccccc1)c1ccccc1` was 104

Note to self: Emax recorded for `CN1CCN(c2ccc(N)cc2)CC1` was 100

---

Below is a list of entries, each paired with its recorded Emax value.
System tested: Alpha-2C adrenergic receptor (Homo sapiens)
Method: Agonist activity at recombinant human alpha2c adrenergic receptor expressed in CHOK1 cells co-expressing Gqi5 assessed as induction of cytoplasmic calcium mobilization measured for 40 secs by fluorometric analysis relative to UK14304
Format: functional, cell-based
Condition summary: CHO-K1
Hi! Could you send only the number? It should be in %, unit omitted.

Examples with their reported Emax follow.
- Molecule: "Cc1ccccc1Cn1ccnc1CNC(C)C"
  Emax, %: 55
- Molecule: "NCCSc1nc2ccccc2o1"
  Emax, %: 49
- Molecule: "NCC(=O)Nc1ccccc1Oc1ccccc1"
  Emax, %: 93
- Molecule: "c1cncc(-c2ccccc2NCc2ccncc2)c1"
  Emax, %: 56
- Molecule: "Cc1ccccc1NCc1cnc[nH]1"
  Emax, %: 60
- Molecule: "c1ccc(-c2nc(CNCc3cccnc3)c[nH]2)cc1"
  Emax, %: 87
- Molecule: "c1ccc2c(CC3=NCCN3)cccc2c1"
  Emax, %: 55
- Molecule: "Oc1cc2c(cc1O)C(c1ccccc1)CNCC2 (configuration not stated)"
  Emax, %: 70

Note to self: Emax recorded for OC(Cn1ccnc1)c1ccc(Cl)cc1Cl (configuration not stated) was 123

---

System tested: Alpha-2C adrenergic receptor (Homo sapiens, UniProt P18825)
Method: Agonist activity at recombinant human alpha2c adrenergic receptor expressed in CHOK1 cells co-expressing Gqi5 assessed as induction of cytoplasmic calcium mobilization measured for 40 secs by fluorometric analysis
Measured endpoint: pEC50
Kindly note that pEC50 refers to -log10 of the concentration in mol/L and answer with the value alone.

Examples with their reported pEC50 follow.
- Molecule: "OC(Cn1ccnc1)c1ccc(Cl)cc1Cl (centres undefined)"
  pEC50: 3.47
- Molecule: "Oc1cc2c(cc1O)C(c1ccccc1)CNCC2 (centres undefined)"
  pEC50: 5.86
- Molecule: "Cc1ccccc1Cn1ccnc1CNC(C)C"
  pEC50: 3.83

Note to self: pEC50 recorded for `NCC(=O)Nc1ccccc1Oc1ccccc1` was 3.20

---

System tested: UniProtKB P18825
Sequence (P18825 whole entry): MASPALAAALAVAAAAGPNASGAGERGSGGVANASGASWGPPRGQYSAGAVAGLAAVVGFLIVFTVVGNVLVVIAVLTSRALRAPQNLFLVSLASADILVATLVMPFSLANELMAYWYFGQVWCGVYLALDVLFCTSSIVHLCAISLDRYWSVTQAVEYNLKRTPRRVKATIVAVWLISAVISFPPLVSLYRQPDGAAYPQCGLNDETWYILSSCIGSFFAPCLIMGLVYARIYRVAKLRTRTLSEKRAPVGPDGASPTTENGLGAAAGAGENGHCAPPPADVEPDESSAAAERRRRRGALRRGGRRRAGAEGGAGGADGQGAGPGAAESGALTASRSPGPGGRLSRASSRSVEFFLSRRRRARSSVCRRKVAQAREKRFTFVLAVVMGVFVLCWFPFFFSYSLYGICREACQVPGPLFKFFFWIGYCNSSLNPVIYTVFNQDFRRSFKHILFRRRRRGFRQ
Method: Agonist activity at recombinant human alpha2c adrenergic receptor expressed in CHOK1 cells co-expressing Gqi5 assessed as induction of cytoplasmic calcium mobilization measured for 40 secs by fluorometric analysis
Label yes when EC50 is strictly below 3 µM; at or above that, label no.

Example entries begin here.
- Compound: "Cc1ccccc1NCc1cnc[nH]1"
  Group label: "yes"
- Compound: "NCCSc1nc2ccccc2o1"
  Group label: "no"
- Compound: "c1cncc(-c2ccccc2NCc2ccncc2)c1"
  Group label: "no"
- Compound: "c1ccc(-c2nc(CNCc3cccnc3)c[nH]2)cc1"
  Group label: "no"
- Compound: "CN1CCN(c2ccc(N)cc2)CC1"
  Group label: "no"

### Prompt Find out if reported EC50 for `N#Cc1cccc(-c2ccccc2CCN)c1` is less than 3 µM
### Response no

### Prompt Find out if reported EC50 for `Brc1cccc(Cn2ccnc2)c1` is less than 3 µM
### Response no

### Prompt Find out if reported EC50 for c1ccc2c(CC3=NCCN3)cccc2c1 [NAPHAZOLINE] is less than 3 µM
### Response yes

---

System tested: UniProt:P18825
Sequence (P18825 whole entry): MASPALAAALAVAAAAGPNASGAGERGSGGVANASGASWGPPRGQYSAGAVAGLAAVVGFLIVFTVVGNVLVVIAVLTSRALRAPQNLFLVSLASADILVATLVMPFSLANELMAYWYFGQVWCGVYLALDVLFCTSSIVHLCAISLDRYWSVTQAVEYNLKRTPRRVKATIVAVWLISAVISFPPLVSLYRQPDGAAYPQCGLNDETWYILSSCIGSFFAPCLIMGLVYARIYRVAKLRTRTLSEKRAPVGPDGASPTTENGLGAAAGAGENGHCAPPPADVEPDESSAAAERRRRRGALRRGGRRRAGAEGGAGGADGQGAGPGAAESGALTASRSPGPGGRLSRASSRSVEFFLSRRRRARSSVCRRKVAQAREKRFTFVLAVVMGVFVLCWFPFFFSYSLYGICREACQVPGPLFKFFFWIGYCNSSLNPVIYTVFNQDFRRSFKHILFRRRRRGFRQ
Method: Displacement of [3H]-UK14304 from recombinant human alpha2c adrenergic receptor expressed in CHOK1 cell membranes after 30 mins by scintillation counting analysis
Measured endpoint: pKi
Kindly note that pKi refers to -log10 of the concentration in mol/L and answer with the value alone.

Examples with their reported pKi follow.
- Compound: "NCC(=O)Nc1ccccc1Oc1ccccc1"
  System tested: "UniProt:P18825"
  pKi: 4.81
- Compound: "CN1CCN(c2ccccc2N)CC1"
  System tested: "UniProt:P18825"
  pKi: 6.62
- Compound: "Oc1cc2c(cc1O)C(c1ccccc1)CNCC2 (stereo not given)"
  System tested: "UniProt:P18825"
  pKi: 7.08
- Compound: "OC(Cn1ccnc1)c1ccc(Cl)cc1Cl (stereo not given)"
  System tested: "UniProt:P18825"
  pKi: 4.82
- Compound: "O=C(CCC1CCCC1)N1CCSC12CCNCC2"
  System tested: "UniProt:P18825"
  pKi: 4.81
- Compound: "c1ccc(-c2nc(CNCc3cccnc3)c[nH]2)cc1"
  System tested: "UniProt:P18825"
  pKi: 5.28
- Compound: "CCNCC(=O)N1CCn2cccc2C1c1cccc(Cl)c1 (stereo not given)"
  System tested: "UniProt:P18825"
  pKi: 5.14
- Compound: "CN1CCN(c2ccc(N)cc2)CC1"
  System tested: "UniProt:P18825"
  pKi: 5.82

Note to self: pKi recorded for `c1ccc2c(CC3=NCCN3)cccc2c1` was 8.64

Note to self: pKi recorded for `Brc1cccc(Cn2ccnc2)c1` was 5.93

---

System tested: Alpha-2C adrenergic receptor (Homo sapiens) (UniProt P18825)
Sequence (whole entry): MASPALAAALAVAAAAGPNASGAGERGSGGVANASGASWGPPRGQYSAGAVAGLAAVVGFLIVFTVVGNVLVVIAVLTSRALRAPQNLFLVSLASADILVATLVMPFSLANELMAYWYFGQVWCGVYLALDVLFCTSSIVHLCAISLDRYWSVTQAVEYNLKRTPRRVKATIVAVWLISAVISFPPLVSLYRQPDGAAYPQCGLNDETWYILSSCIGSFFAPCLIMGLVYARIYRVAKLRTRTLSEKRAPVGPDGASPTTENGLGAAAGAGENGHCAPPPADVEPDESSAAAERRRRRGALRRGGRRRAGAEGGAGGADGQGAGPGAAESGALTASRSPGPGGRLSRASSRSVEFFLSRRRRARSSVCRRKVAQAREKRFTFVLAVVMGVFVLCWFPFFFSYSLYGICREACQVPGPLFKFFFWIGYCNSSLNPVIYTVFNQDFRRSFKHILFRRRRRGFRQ
Method: Displacement of [3H]-UK14304 from recombinant human alpha2c adrenergic receptor expressed in CHOK1 cell membranes after 30 mins by scintillation counting analysis
Condition summary: CHO-K1
Measured endpoint: Emax (%)
Hi! Could you send only the number? It should be in %, unit omitted.

Note to self: Emax recorded for COc1ccccc1OCC1CNCCO1 (stereo not drawn) was 81

Note to self: Emax recorded for `O=C(CCC1CCCC1)N1CCSC12CCNCC2` was 81

Note to self: Emax recorded for `Cc1ccccc1Cn1ccnc1CNC(C)C` was 102

All values here come from ChEMBL document CHEMBL3588743.
